Target: ALK2 (Mus musculus)
Construct: endogenous in cells
Experiment: Luciferase reporter gene assay for ALK2 activity (C2C12 BRE-Luc SMAD1/5/8 reporter, BMP6 agonist)
Conditions: BMP6 50 ng/mL
Reported values of IC50 for individual entries
Measured metric: IC50 (nM)

• Cc1cc(-c2cnn3cc(N4CCC(N(C)C)CC4)cnc23)c2ccccc2n1 = 137
• Cc1cc(-c2cnn3cc(N4CCN(C)CC4)cnc23)c2ccccc2n1 = 935
• Cc1cc(-c2cnn3cc(N4CC(N5CCN(C)CC5)C4)cnc23)c2ccccc2n1 = 14

====

Target: ALK2 (Mus musculus, UniProt P37172)
Construct: endogenous in cells
Sequence (P37172 21-509): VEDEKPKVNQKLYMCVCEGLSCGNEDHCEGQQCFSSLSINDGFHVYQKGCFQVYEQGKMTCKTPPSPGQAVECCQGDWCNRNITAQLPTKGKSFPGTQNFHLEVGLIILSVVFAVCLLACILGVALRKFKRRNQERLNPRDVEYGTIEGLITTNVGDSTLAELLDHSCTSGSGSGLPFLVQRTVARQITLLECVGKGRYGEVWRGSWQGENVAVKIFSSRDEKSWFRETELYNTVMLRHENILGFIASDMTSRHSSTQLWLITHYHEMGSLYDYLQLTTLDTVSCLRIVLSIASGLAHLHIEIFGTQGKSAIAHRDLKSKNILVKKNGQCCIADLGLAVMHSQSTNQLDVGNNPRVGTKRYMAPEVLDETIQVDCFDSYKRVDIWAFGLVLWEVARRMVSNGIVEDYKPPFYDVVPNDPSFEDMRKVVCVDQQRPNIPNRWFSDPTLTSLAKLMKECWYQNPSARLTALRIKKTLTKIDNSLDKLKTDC
Assay: Luciferase reporter gene assay for ALK2 activity (C2C12 BRE-Luc SMAD1/5/8 reporter, BMP6 agonist)
Conditions: BMP6 50 ng/mL
pIC50: −log10 of the molar value.
Reported values of pIC50 for individual entries
Measured metric: pIC50

* CN1CCN(C2CCN(c3cnc4c(-c5ccnc(N)c5)cnn4c3)CC2)CC1 | < 6.00
* COc1cc2c(-c3cnn4cc(N5CCC(N6CCN(C)CC6)CC5)cc(OC5CCOCC5)c34)ccnc2cc1F | < 6.00
* NC(=O)c1cccc2c(-c3cnn4cc(N5CCN(C6CCNCC6)CC5)cnc34)cccc12 | < 5.52
* COc1cc2c(-c3c(N)nn4cc(N5CCC(N6CCN(C)CC6)CC5)cnc34)ccnc2cc1F | < 6.00
